Reference source: patent US20240384350A1

Parameter: ratio of IC50 for cells with mutant EGFR to IC50 for cells with wildtype EGFR (Mut/WT). Scope: all listed entries.
target_under_test: EGFR V769L (Homo sapiens, UniProt P00533, V769L)
Construct: expressed in transfected cells; host or cells: Ba/F3
experiment_summary: Ba/F3 drug screening, Cell Titer Glo, IC50 Mut/WT
Assay type: cell-based
condition_summary: PACC; V769L; Ba/F3; 72 hours
result_type: ratio of IC50 for cells with mutant EGFR to IC50 for cells with wildtype EGFR (Mut/WT)

>>> observed_result("COc1cc2ncnc(Nc3cccc(Cl)c3F)c2cc1OC(=O)N1CCN(C)C[C@H]1C")
0.9765
>>> observed_result("CNC(=O)CN1CCC(Oc2cc3c(Nc4cccc(Cl)c4F)ncnc3cc2OC)CC1")
0.1992
>>> observed_result("CN(C)C/C=C/C(=O)Nc1cc2c(Nc3ccc(Cl)c(Br)c3)ncnc2cn1")
0.3024
>>> observed_result("COc1cc2ncnc(Nc3ccc(F)c(Cl)c3)c2cc1NC(=O)/C=C/CN1CCCCC1")
0.1402
